System: RXF 393 renal
Experiment: NCI tumour cell line growth inhibition, 48 h
Parameter: GI50

So for "O=C(c1ccccc1)N(C(=S)NCCc1ccc(Cl)cc1)c1ccc(Cl)cc1" , the logged GI50 turned out to be 12.8 µM

So for "COC(=O)c1ccc2[nH]c(O)c(C(=Nc3ccc(N(C)C(=O)CN4CCN(C)CC4)cc3)c3cccc(OC)c3)c2c1" , the logged GI50 turned out to be 0.549 µM

So for "CCOC(=O)C(=Cc1ccc(-c2ccccc2)cc1)C(=O)OCC" , the logged GI50 turned out to be 1.95 µM

So for "C=C1C(=O)O[C@H]2[C@H]1CC/C(COC(=O)NCc1ccc(Cn3c(=O)sn(CCCC)c3=O)cc1)=C\CC[C@@]1(C)O[C@@H]21" , the logged GI50 turned out to be 1.57 µM

So for "CCOC(=O)c1cnc2c(C)cc(C)cc2c1NCCCN(C)C" , the logged GI50 turned out to be 5.86 µM

So for "CN1CCN(CCCOc2ccc3ncnc(Nc4ccc(OCc5cccc(F)c5)c(Cl)c4)c3c2)CC1" , the logged GI50 turned out to be 1.58 µM

So for "O=c1cc(-c2ccccc2)oc2cc(OCc3cn(Cc4ccc(F)cc4)nn3)cc(OCc3cn(Cc4ccc(F)cc4)nn3)c12" , the logged GI50 turned out to be 1.78 µM

---

Tested on: A498 renal
Assay: NCI tumour cell line growth inhibition, 48 h
Would you mind telling me the reported TGI of each entry?

So for CC(C)=NNC1=NC(C)(C)P(=O)(NNc2ncccn2)S1 (stereo not drawn) , the logged TGI turned out to be > 100 µM

So for "C(=C\c1cc(CCc2nc3ccccc3[nH]2)[nH]n1)/c1ccccc1" , the logged TGI turned out to be > 100 µM

So for "CN(c1nc(=[N+](C)C)ss1)C1CCCCC1" , the logged TGI turned out to be > 100 µM

---

Test system: T-47D breast
Assay: NCI tumour cell line growth inhibition, 48 h
Would you mind telling me the reported TGI of each entry?

So for COc1cccc(C2CC(=O)c3cc(N4CCCC4)ccc3N2)c1 (centres undefined) , the logged TGI turned out to be > 100 µM

So for "c1ccc(-c2n(Cc3ccc4ccccc4n3)cc[n+]2Cc2ccc3ccccc3n2)cc1" , the logged TGI turned out to be 7.77 µM

So for "Cc1ccc2c(=O)cc(-c3ccc(Cl)cc3)[nH]c2n1" , the logged TGI turned out to be 26.3 µM

So for "Cn1ccnc1C(=O)/C=C/c1ccc(C(=O)Nc2ccc(F)cc2)cc1" , the logged TGI turned out to be > 50 µM

So for "O=C(c1ccccc1)N(C(=S)NCCc1ccc(Cl)cc1)c1ccc(Cl)cc1" , the logged TGI turned out to be 25.3 µM

So for "CC(=O)Oc1ccc2c3c1[C@H]1O[C@H]1c1cccc(c1-3)[C@@H]1O[C@H]21" , the logged TGI turned out to be 6.79 µM

So for "COc1ccc(NC(=O)CSc2nnc(-c3ccc(N=Cc4ccc(Cl)cc4)cc3)o2)cc1" , the logged TGI turned out to be > 100 µM

So for "CN(N=O)C(=O)NNC(=O)N(C)N=O" , the logged TGI turned out to be > 100 µM

So for CN(C)CCNC(=O)c1cccc2c(NC(CCCN=C(N)N)C(=O)O)c3ccccc3[n+](C)c12 (centres undefined) , the logged TGI turned out to be > 100 µM

---

Test system: NCI-H23 lung
Experiment: NCI tumour cell line growth inhibition, 48 h
Parameter: TGI

So for "CCCCC(CCCC)=NNC(=S)SC" , the logged TGI turned out to be > 100 µM

So for "COc1ccc2c(c1)c(-c1nonc1-c1cn(C)c3ccccc13)cn2C" , the logged TGI turned out to be > 100 µM

So for CC(=O)c1c(-c2ccc(Cl)cc2)c(C#N)c(=S)n(C2OC(CO)C(O)C(O)C2O)c1-c1ccccc1 (stereo not given) , the logged TGI turned out to be > 100 µM

So for "COc1ccc(-c2ccccc2)c(N/N=C2\CCCNC2=O)c1" , the logged TGI turned out to be > 100 µM

So for "Cc1ncc(CSc2ccccc2N)c(CO)c1O" , the logged TGI turned out to be > 100 µM

So for "COCOCCCCCO[Si](C)(C)C(C)(C)C" , the logged TGI turned out to be 42.7 µM

So for "CCOC(=O)COc1ccc(OC)c2c1C(=O)CCC2" , the logged TGI turned out to be > 100 µM

So for "CC[C@H](C)[C@H](NC(=O)C12CC(NC)(C1)C2)C(=O)N(C)[C@H](C[C@@H](OC(C)=O)c1nc(C(=O)N[C@@H](Cc2ccccc2)C[C@H](C)C(=O)OC)cs1)C(C)C" , the logged TGI turned out to be > 25 µM

So for "Cc1cc2nc(CS)[nH]c2cc1C" , the logged TGI turned out to be > 100 µM

So for "COc1cc2c(cc1OC)-c1cc(OC)c(OC)cc1[C@H]1CN3CCC[C@@]3(O)C=C21" , the logged TGI turned out to be 0.000267 µM

So for "Cc1[nH]n(-c2ncc(C#N)c(=O)[nH]2)c(=O)c1CCO" , the logged TGI turned out to be > 100 µM

So for "Oc1c(CNCCCN2CCCC2)cc(Cl)c2cccnc12" , the logged TGI turned out to be 23.9 µM

So for "C=C1C(=O)O[C@H]2[C@H]1CC/C(COC(=O)NCc1ccc(Cn3c(=O)sn(CCCC)c3=O)cc1)=C\CC[C@@]1(C)O[C@@H]21" , the logged TGI turned out to be 15.3 µM

So for "COc1ccc2c(c1)/C(=C\c1c(-c3ccccc3)nc3n1CCS3)C(=O)N2" , the logged TGI turned out to be 33.4 µM

So for Nc1ncnc2c1ncn2C1OC(CSC(F)F)C(O)C1O (stereo not given) , the logged TGI turned out to be > 100 µM

So for "O=C(Cn1nnc(-c2ccccc2)n1)N/N=C/c1cn(Cc2ccc(Cl)cc2Cl)c2ccccc12" , the logged TGI turned out to be > 100 µM

So for "N#C/C(=C/c1cccc2ccccc12)C(=O)c1ccccc1" , the logged TGI turned out to be 32.2 µM

So for c1ccc2[nH]c(C3CCCCO3)nc2c1 (stereo not given) , the logged TGI turned out to be > 100 µM

So for COc1nc(=O)cc(N)n1C1OC(CO)C(O)C1O (stereo not given) , the logged TGI turned out to be > 100 µM

So for CCCCCCCCCCCCCCCC(=O)Nc1ccn(C2OC(CO)C(O)C2O)c(=O)n1 (stereo not given) , the logged TGI turned out to be 81.5 µM

So for "O=C1CNN=C(CSc2nc3ccc(I)cc3c(=O)n2Cc2ccccc2)N1" , the logged TGI turned out to be > 100 µM

So for N/N=C(\CCN1CCCC1)CC(c1ccccc1)c1c(O)c2ccccc2oc1=O (stereo not given) , the logged TGI turned out to be > 100 µM

So for "CN1CCN(CCCOc2ccc3ncnc(Nc4ccc(OCc5cccc(F)c5)c(Cl)c4)c3c2)CC1" , the logged TGI turned out to be 3.2 µM

So for "COc1cc(Cl)cc(-c2nn(-c3cccc(NC(=O)c4cccc(C(F)(F)F)c4)c3)cc2-c2ccncc2)c1" , the logged TGI turned out to be > 100 µM

So for "Cc1ccc(Cl)cc1Nc1nc(C(F)(F)F)ccc1C(N)=O" , the logged TGI turned out to be 15.9 µM

So for [N-]=[N+]=NCC1OCC(O)C(OCc2ccccc2)C1OCc1ccccc1 (stereo not given) , the logged TGI turned out to be > 100 µM

So for NC(N)=N/N=C(/CCN1CCCC1)CC(c1ccccc1)c1c(O)c2ccccc2oc1=O (stereo not given) , the logged TGI turned out to be > 100 µM

So for "CCCC(=O)OCC(COC(=O)CCC)OC(=O)CCC" , the logged TGI turned out to be > 100 µM

So for CC(=O)OCC1OC(n2c(C)c(C(C)=O)c(-c3ccc(Cl)cc3)c(C#N)c2=S)C(OC(C)=O)C(OC(C)=O)C1OC(C)=O (stereo not given) , the logged TGI turned out to be > 100 µM

So for CC1=NOC(C)(O)/C1=N/O (stereo not given) , the logged TGI turned out to be > 100 µM

So for "C[C@H](Nc1ccc2c(c1)OCCn1cc(N3C(=O)OC[C@H]3C(F)F)nc1-2)C(N)=O" , the logged TGI turned out to be > 100 µM

So for "COc1cc(/C=N/NC(=O)c2c(Cl)c(Cl)c(Cl)c(Cl)c2-c2nc3ccccc3[nH]2)ccc1O" , the logged TGI turned out to be 55.3 µM

So for "O=c1cc(N2CCOCC2)[nH]c(=O)n1-c1cccc(Cl)c1" , the logged TGI turned out to be > 100 µM

So for COc1ccc(N=NC(=O)NC(CC(C)C)C(=O)NC(CC(C)C)C(=O)O)cc1 (stereo not given) , the logged TGI turned out to be > 100 µM

So for "CC(=O)COC(=O)CC(C)=O" , the logged TGI turned out to be > 100 µM
